# key: entry, value: koff
- assay-target: T1, Recombinant human CXCL16 (rhCXCL16) protein (human, UniProt Q9H2A7 30-118, limits assumed)
- T1 construct: Bought recombinant protein (976-CX, R&D systems); also called CXCL16 antigen; 976-CX (R&D systems)
- T1 sequence: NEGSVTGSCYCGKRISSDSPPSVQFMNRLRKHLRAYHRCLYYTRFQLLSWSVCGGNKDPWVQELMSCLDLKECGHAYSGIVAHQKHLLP
- procedure-text: BLI (ForteBio), antibody captured on biosensor, rhCXCL16 in solution, 25 C
quantity: koff

[[record]]
binder = "Chimeric antibody HC0LC0 (antibody, V domains shown, also called CLS-A1HC0LC0; variant antibody) VH: AVQLVESGGGLVQPKESLKISCAASGFTFSNAVMNWVRQAPGKGLEWVARIRTKPNNYATFYADSVKGRFTFSRDDSKSMVYLQMDNLKTEDTAMYYCTAWTTEGIYWGQGTLVTVSS VL: DIVMTQSPSSLAVSAGETVTINCKSSQSLLYSGNQKNYLAWYQQKPGQSPKLLIYWASTRQSGVPDRFIGSGSGTDFTLTISSVQAEDLAIYYCQQYYDTPWTFGGGTKLELKR"
result = "< 1e-07 s⁻¹"

[[record]]
binder = "HC5LC5 (antibody, human IgG1, kappa, V domains shown, Humanized; human IgG1 / kappa constant domains; also called HCSLCS; humanized CXCL16 antibody HC5LC5) VH: EVQLVESGGGLVQPGGSLKLSCAASGFTFSNAVMNWVRQASGKGLEWVARIRTKPNNYATFYADSVKGRFTFSRDDSKNTAYLQMNSLKTEDTAMYYCTAWTTEGIYWGQGTLVTVSS VL: DIVMTQSPSSLAVSAGERATINCKSSQSLLYSGNQKNYLAWYQQKPGQSPKLLIYWASTRQSGVPDRFIGSGSGTDFTLTISSLQAEDVAIYYCQQYYDTPWTFGGGTKLELKR"
result = "< 1e-07 s⁻¹"

[[record]]
binder = "HC4LC1 (antibody, human IgG1, kappa, V domains shown, Humanized; human IgG1 / kappa constant domains; also called humanized CXCL16 antibody HC4LC1) VH: EVQLVESGGGLVKPGGSLRLSCAASGFTFSNAVMNWVRQAPGKGLEWVARIRTKPNNYATFYADSVKGRFTFSRDDSKNTLYLQMNSLKTEDTAVYYCTAWTTEGIYWGQGTTVTVSS VL: DIVMTQSPDSLAVSAGETVTINCKSSQSLLYSGNQKNYLAWYQQKPGQSPKLLIYWASTRQSGVPDRFSGSGSGTDFTLTISSVQAEDVAVYYCQQYYDTPWTFGGGTKVEIKR"
result = "1.9e-05 s⁻¹"

